The origin of these recorded values is patent US4570005A.

System: sensitive green rice leafhopper (collected at Chigasaki)
Experiment: whole plant or invertebrate
Type: in vivo
Settings: Nephotettix cincticeps; 20 ppm; sensitive female adults; 24 hours; read-out: Mortality (%), Green Rice Leafhopper Collected at Chigasaki
Test readout: mortality at 20 ppm (%)
Please give a number only; it is taken to be in %.

These recorded examples may help you get a feel for the data.
[
  {
    "Compound": "CCOc1c(C)cc(C(C)(C)COCc2cccc(Oc3ccccc3)c2)cc1C [Compound 97]",
    "Unit of measurement": "%",
    "Recorded number": 100
  },
  {
    "Compound": "CCOc1ccc(C(C)(C)COCc2cccc(Oc3ccccc3)c2)cc1C [Compound 90]",
    "Unit of measurement": "%",
    "Recorded number": 100
  },
  {
    "Compound": "COc1ccc(Oc2cccc(COCC(C)(C)c3ccc(Cl)c(Cl)c3)c2)cc1 [Compound 41]",
    "Unit of measurement": "%",
    "Recorded number": 100
  },
  {
    "Compound": "CCC(C)(COCc1cccc(Oc2ccc(Br)cc2)c1)c1ccc(Cl)cc1 (stereo not drawn) [Compound 46]",
    "Unit of measurement": "%",
    "Recorded number": 65
  }
]

Task: I am curious: what mortality at 20 ppm value has been reported for CC(C)(COCc1cccc(Oc2ccccc2)c1)c1ccc(F)cc1 [Compound 51] ?
Output: 100

Task: I am curious: what mortality at 20 ppm value has been reported for CCC(C)Oc1ccc(C(C)(C)COCc2cccc(Oc3ccccc3)c2)cc1 (stereo not drawn) [Compound 70] ?
Output: 100

Task: I am curious: what mortality at 20 ppm value has been reported for CCC(C)(COCc1cccc(Oc2ccc(F)cc2)c1)c1ccc(F)cc1 (stereo not drawn) [Compound 2] ?
Output: 80

Task: I am curious: what mortality at 20 ppm value has been reported for CCOc1ccc(Oc2cccc(COCC(C)(C)c3ccc(Cl)cc3)c2)cc1 [Compound 94] ?
Output: 100

Task: I am curious: what mortality at 20 ppm value has been reported for CC(C)(COCc1cccc(Oc2ccccc2F)c1)c1ccc(Cl)cc1 [Compound 14] ?
Output: 100

Task: I am curious: what mortality at 20 ppm value has been reported for CC(C)(COCc1cccc(Oc2ccccc2)c1)c1ccc(OCCCl)cc1 [Compound 108] ?
Output: 95
